Listing: kcat/Km of selected molecules
Test system: Medicago truncatula hydroperoxide lyase CYP74C3 (HPLF), recombinant, wild type, N-terminal histidine-tagged
SETUP CONDITIONS: +Detergent (purified in detergent-buffer)
PROPERTY LABEL: kcat/Km (M⁻¹ s⁻¹)

> print(dat)
                                   molecule  result.units  test.value
1  CCCCC[C@@H](/C=C/C=C\CCCCCCCC(=O)O)OO [13α-HPOD]       M⁻¹ s⁻¹     3.5e+07
2  CC/C=C\C/C=C\C=C\[C@H](CCCCCCCC(=O)O)OO [9α-HPOT]       M⁻¹ s⁻¹      600000
3  CC/C=C\C[C@@H](/C=C/C=C\CCCCCCCC(=O)O)OO [13α-HPOT]       M⁻¹ s⁻¹   1.558e+08
4  CCCCC/C=C\C=C\[C@H](CCCCCCCC(=O)O)OO [9α-HPOD]       M⁻¹ s⁻¹    1.29e+07
